Experimental endpoint: IC50

Request: Give the reported IC50 for "Cc1nc(-c2noc(-c3ccncc3)n2)cn1CC(=O)N1CCN(c2ccc(F)cc2)CC1" (system: Ubiquitin carboxyl-terminal hydrolase 28 (Homo sapiens)).
Response: 37.6 µM

Request: Give the reported IC50 for COc1cc(C2SCC(=O)Nc3c2c(-c2ccccc2)nn3-c2ccccc2)cc(OC)c1OC (stereo not drawn) (system: Ubiquitin carboxyl-terminal hydrolase 28 (Homo sapiens)).
Response: 3.37 µM

Request: Give the reported IC50 for "O=C(COc1ccc2oc3c(c2c1)CCCC3)Nc1ccccn1" (system: Ubiquitin carboxyl-terminal hydrolase 28 (Homo sapiens)).
Response: 24.9 µM

----------
Kindly state IC50 for each of the entries shown.
# Target of assay: Ubiquitin carboxyl-terminal hydrolase 28 (Homo sapiens)
# Test name: Concentration-response biochemical assay confirming initial hits as inhibitors of ubiquitin-specific protease 28 (AID 1645866)
# Setup conditions: purified USP28, ubiquitin-rhodamine fluorescence, 30 min
The source made the active and inactive calls.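 Rule for the calls: active = in confirmatory dose-response testing, peak deubiquitinase inhibition of 30% or more; inactive = the rest.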

Request: Requested field: IC50. Item: "COc1ccc(C)cc1NC(=O)CSc1nc(C)nc2c1oc1ccccc12"
Response: 22 µM

Request: Requested field: IC50. Item: O=C(Nc1ccc(F)cc1F)NC1CCN(c2ccccc2)C1=O (stereo not given)
Response: 21.7 µM

Request: Requested field: IC50. Item: "CS(=O)(=O)N1CCCc2cc(C(=O)Nc3ccc(Oc4ccccc4)cc3)ccc21"
Response: 12.5 µM

Request: Requested field: IC50. Item: "N#Cc1ccc(NC(=O)Nc2cccn(Cc3ccccc3F)c2=O)cc1"
Response: 0.235 µM

Request: Requested field: IC50. Item: "Cc1cnnn1-c1ccc(C(=O)Nc2ccc(Cl)cc2)cc1"
Response: 20.3 µM

Request: Requested field: IC50. Item: "Cc1ccc(NC(=O)CSc2nc3c(cc2C#N)C(=O)CCC3)cc1"
Response: 21 µM

Request: Requested field: IC50. Item: "CN(c1ccccc1)c1nc(=O)n(CC(=O)Nc2ccc3c(c2)OCCO3)c2ccccc12"
Response: 28.2 µM

Request: Requested field: IC50. Item: "CS(=O)(=O)N1CCc2cc(C(=O)Nc3ccc(Cc4ccncc4)cc3)ccc21"
Response: 8.75 µM

Request: Requested field: IC50. Item: "COC(=O)c1ccc(NC(=O)CSc2nnc(-c3ccc(O)cc3)n2Cc2ccco2)cc1"
Response: 33.9 µM

Request: Requested field: IC50. Item: "CCn1cc2c(n1)c(=O)n(Cc1ccccc1)c(=O)n2CC(=O)Nc1ccc(OC)cc1"
Response: 10.5 µM

Request: Requested field: IC50. Item: "CCCC(=O)Nc1nc2ccc(CCC(=O)NCc3ccc(F)cc3)cc2s1"
Response: 25.8 µM

Request: Requested field: IC50. Item: "CCN1CCN(C(=O)CCCN(c2ccccc2)S(C)(=O)=O)CC1"
Response: > 50 µM (inactive)

Request: Requested field: IC50. Item: "COc1ccc(CCC(=O)Nc2ccc3c(c2)Sc2ncccc2C(=O)N3C)cc1"
Response: 41 µM

Request: Requested field: IC50. Item: "COc1cccc(-c2nc3cnccn3c2NCc2ccc3c(c2)OCO3)c1"
Response: > 50 µM (inactive)

Request: Requested field: IC50. Item: "CCS(=O)(=O)c1ccccc1C(=O)Nc1ccc2sc(C)nc2c1"
Response: 17.2 µM
